- Target under test: PLL3 (Photorhabdus laumondii subsp. laumondii)
- Method description: SPR inhibition test on immobilized OMeDis
- Format: binding
- Particulars: inhibition of interaction between PLL3 (20 μM) and immobilized OMeDis; read-out: IC50
pIC50: −log10 of the molar value.
Measurement label: pIC50

[[record]]
compound = "CO[C@@H]1O[C@@H](C)[C@@H](O)[C@@H](O)[C@@H]1O [methyl α-L-fucopyranoside]"
measurement_label = "pIC50"
observed = 2.98


---

- Target under test: PLL3 (Photorhabdus laumondii subsp. laumondii, UniProt Q7N8I7)
- Sequence (Q7N8I7 entry or part of it): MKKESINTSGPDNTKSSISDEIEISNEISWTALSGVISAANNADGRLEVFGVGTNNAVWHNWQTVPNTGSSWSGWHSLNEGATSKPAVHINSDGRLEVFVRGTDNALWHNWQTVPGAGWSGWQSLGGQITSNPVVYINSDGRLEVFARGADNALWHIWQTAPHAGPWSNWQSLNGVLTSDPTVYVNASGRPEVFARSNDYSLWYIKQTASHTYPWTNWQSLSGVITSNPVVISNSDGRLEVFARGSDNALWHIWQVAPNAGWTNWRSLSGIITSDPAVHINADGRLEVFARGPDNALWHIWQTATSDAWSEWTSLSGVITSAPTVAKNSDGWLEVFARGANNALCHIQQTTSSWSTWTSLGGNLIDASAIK
- Method description: Isothermal titration calorimetry (ITC)
- Assay type: binding
- Particulars: text summary over stoichiometry fixed 3 to 7, read-out: KD values
Measurement label: Kd

[[record]]
compound = "CO[C@@H]([C@H](O)[C@H](O)CO)[C@@H](O)C=O"
measurement_label = "Kd"
observed = "> 10.4 mM"

